- Test system: P388 leukemia ip, CD2F1 mice, survival T/C
- ASSAY_REMARKS: NCI In Vivo Anticancer Drug Screen. Data for tumor model P388 Leukemia (intraperitoneal) in CD2F1 (CDF1) mice
- ASSAY_CONDITIONS: endpoint: median survival time; dose: 100.0 mg/kg/injection; schedule: Q01DX005 (ip); vehicle: Klucel (hydroxypropylcellulose) (HPC); higher = longer survival
Toxic doses and inconclusive results are not listed.
MEASURED_PROPERTY: T/C

The examples below pair each entry with its known result.
[[record]]
substance_smiles = "O=C1OCC2=Nc3cccc4cccc(c34)N12"
endpoint_value = "94 % of control"

[[record]]
substance_smiles = "C/C=C(\\C)C(=O)N/N=C/c1cccnc1"
endpoint_value = "103 % of control"

[[record]]
substance_smiles = "CC(C)(C)N1C(=O)NCS1(=O)=O"
endpoint_value = "100 % of control"

[[record]]
substance_smiles = "CCOCC[Si]12OCCN(CCO1)CCO2"
endpoint_value = "101 % of control"

[[record]]
substance_smiles = "O=c1[nH]c(=S)[nH]c2c1CN(CCCN1CCN(CCCN3CNc4[nH]c(=S)[nH]c(=O)c4C3)CC1)CN2"
endpoint_value = "94 % of control"


Which value of T/C has been reported for Cc1nc2ccccc2c(=O)n1-c1ccc(-c2n[nH]c(=S)n2-c2ccccc2)cc1 in the records?
110 % of control

###

- Test system: P388 leukemia ip, CD2F1 mice, survival T/C
- ASSAY_REMARKS: NCI In Vivo Anticancer Drug Screen. Data for tumor model P388 Leukemia (intraperitoneal) in CD2F1 (CDF1) mice
- ASSAY_CONDITIONS: endpoint: median survival time; dose: 200.0 mg/kg/injection; schedule: Q01DX009 (ip); vehicle: saline with Tween-80; higher = longer survival
Toxic doses and inconclusive results are not listed.
This listing pairs compounds with measured T/C.

Example compounds with recorded T/C:
[[record]]
compound = "CN(C)Cc1c(N=Nc2cccc3c(N=Nc4[nH]c5ccccc5c4CN(C)C)cccc23)[nH]c2ccccc12"
endpoint_value = "89 % of control"

[[record]]
compound = "CC1=C(C)CC2(CC1)C(=O)C1(CCC(C)=C(C)C1)C2=O (centres undefined)"
endpoint_value = "99 % of control"

[[record]]
compound = "COC(=S)c1ccc(C(=S)OC)cc1"
endpoint_value = "103 % of control"


# context switch: different compound, same T/C
For COn1nnc2ccccc21 , what is its reported T/C?
92 % of control

###

- System: P388 leukemia ip, CD2F1 mice, survival T/C
- ASSAY_REMARKS: NCI In Vivo Anticancer Drug Screen. Data for tumor model P388 Leukemia (intraperitoneal) in CD2F1 (CDF1) mice
- ASSAY_CONDITIONS: endpoint: median survival time; dose: 100.0 mg/kg/injection; schedule: Q01DX009 (ip); vehicle: Klucel (hydroxypropylcellulose) (HPC); higher = longer survival
- Procedure: The antitumor activity of compounds was measured in mice bearing transplantable tumors. Survival or tumor size were measured and the results are expressed as the measurement made in the treated group (T) divided by the measurement made in the vehicle treated control group (C). The tumor model used in this assay is P388 Leukemia (intraperitoneal) in CD2F1 (CDF1) mice
Inconclusive results and toxic doses are left out.
Catalogue of molecules with associated T/C

Worked examples, 4 molecules total:
[[record]]
molecule = "CC(=O)NCCSC(NC(=O)Cc1ccccc1)C(=O)O (stereo not given)"
endpoint_value = "97 % of control"

[[record]]
molecule = "NC(CSC(c1ccccc1)(c1ccccc1)c1ccccc1)C(=O)O (stereo not given)"
endpoint_value = "100 % of control"

[[record]]
molecule = "Oc1ccc(C2(c3ccc(O)cc3)C3CC4CC(C3)CC2C4)cc1"
endpoint_value = "103 % of control"

[[record]]
molecule = "NNC(=O)c1ccccc1NC(=O)CSc1nc2ccccc2s1"
endpoint_value = "101 % of control"


Quick check: T/C on P388 leukemia ip, CD2F1 mice, survival T/C, item O=C(CC1(O)C(=O)Nc2ccccc21)c1ccccn1 (stereo not given) ?
97 % of control

Try this molecule next: CNC(=O)Nc1ccccc1C(=O)NN
105 % of control

Queued: O=c1oc2c(c(=O)n1-c1ccccc1)CC1(CCCCC1)C2
113 % of control

// query: CC(C)c1ccccc1S(=O)c1ccccc1C(C)(C)O (stereo not given)
102 % of control

Next: Cn1c(=O)[nH]c2nnc(-c3ccccc3)nc2c1=O
106 % of control

Item: CN1C2=NCCN2C(=O)c2cc(Cl)ccc21
98 % of control

Now give it for CSc1nc(N)c(C(=O)Nc2ccc3ccccc3c2)s1 too.
98 % of control

Proceed to c1ccc2[nH]c(-c3nc4ccccc4s3)cc2c1
108 % of control

Same lookup for C=C1CC/C=C(\C)CCC2C1CC2(C)C (stereo not given) , please.
105 % of control

Repeat for the following molecule: Nn1c(=O)[nH][nH]c1=O
96 % of control

Here is the next molecule: O=C(CCc1ccccc1)OC/C=C/COC(=O)c1ccccc1
111 % of control

###

- Test system: P388 leukemia ip, CD2F1 mice, survival T/C
- ASSAY_REMARKS: NCI In Vivo Anticancer Drug Screen. Data for tumor model P388 Leukemia (intraperitoneal) in CD2F1 (CDF1) mice
- ASSAY_CONDITIONS: endpoint: median survival time; dose: 200.0 mg/kg/injection; schedule: Q01DX005 (ip); vehicle: saline with Tween-80; higher = longer survival
Toxic doses and inconclusive results are not listed.
Documented T/C across a set of molecules

Solved entries:
[[record]]
molecule = "CC1(C)C=Cc2c(ccc(C(=O)Cc3ccccc3)c2O)O1"
endpoint_value = "93 % of control"

[[record]]
molecule = "Cc1ccc(S(=O)(=O)OCC(COS(=O)(=O)c2ccc(C)cc2)C(C)(C)C)cc1"
endpoint_value = "107 % of control"

[[record]]
molecule = "COC(=O)C1=C(C)NC(C)=C(C(=O)OC)C1c1ccc(Cl)c([N+](=O)[O-])c1"
endpoint_value = "92 % of control"

[[record]]
molecule = "COc1cccc2c1OC(=O)C(S(=O)(=O)c1ccccc1)C2 (stereo not given)"
endpoint_value = "101 % of control"


Then this molecule:
Could you share which T/C value was measured for Cc1ccc(C2SCC(=O)N2c2nncs2)s1 (stereo not given) ?
94 % of control
